- procedure.details: chemical genetic growth profiling, strain panel (AID 1159580);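 note: tested at 20 µM; growth read once vehicle control cultures reached saturation at 30 °C; 1 = growth at the plate median or of vehicle wells; lower values mean less growth of the strain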
- study.conditions: S. cerevisiae deletion strains, growth OD, locus YOL006C, strain TOP1, stronger effect = lower value
The whole screen tested about 5,500 compounds, of which about 2,000 (36%) were called active. Another 18% or so got no clear call; they are omitted. Some of the results follow.
Listed next: entries and their corresponding normalized growth.
I only need the number, thanks.

molecule="C[C@H]1[C@H](C)CC[C@]2(C(=O)O)CC[C@]3(C)C(=CCC4[C@@]5(C)C[C@@H](O)[C@H](O)[C@@](C)(CO)C5[C@H](O)C[C@]43C)[C@H]12 (some centres undefined)" observed=0.915
molecule=CCOC(=O)C1=C(O)C(=O)N(Cc2ccccc2)C1 observed=1.01

Could you tell me which normalized growth is on file for C[C@@H]1CC[C@@]23CCC4(C)[C@@](C=CC5[C@@]6(C)CC[C@H](O)C(C)(C)C6CC[C@]54C)(OC2=O)C3[C@H]1C (some centres undefined) ?
1.08

Dear colleague, I am looking for the recorded normalized growth of the following molecule: CCSc1ncccc1C(=O)N[C@@H](CCSC)C(=O)OC
1

The origin of these recorded values is PubChem BioAssay AID1159580.
